# testSystem: CatSper (Homo sapiens, UniProt Q7RTX7+Q86XQ3+Q8NEC5+Q96P56)
# Construct: Motile spermatozoa were selected by a ‘swim-up’ procedure; endogenous in cells; host or cells: motile human spermatozoa (swim-up) from healthy donors
# testDetails: Inhibition of P4-induced Ca2+ influx in human sperm (screen 2 inhibitors)
# Assay type: cell-based
# runConditions: P4-induced response; pooled from 3 independent experiments; read-out: Mean IC50 (P4) µM (±SD)
Recorded measurements of IC50, one per entry
observable: IC50 (µM)

>>> recordedresult("CC(=O)[C@@]1(O)CC[C@H]2[C@@H]3C[C@H](C)C4=CC(=O)C=C[C@]4(C)[C@@]3(F)[C@@H](O)C[C@@]21C [fluorometholone]")
6.51
>>> recordedresult("CC(=O)O[C@]1(C(C)=O)CC[C@H]2[C@@H]3C=C(C)C4=CC(=O)CC[C@@H]4[C@H]3CC[C@@]21C [nomegestrol acetate]")
41.2
>>> recordedresult("CC#C[C@]1(O)CC[C@H]2[C@@H]3CCC4=CC(=O)CCC4=C3[C@@H](c3ccc(N(C)C)cc3)C[C@@]21C [mifepristone]")
11
>>> recordedresult("C#C[C@]1(O)CC[C@H]2[C@@H]3CCC4=CC(=O)CC[C@]4(C)[C@H]3CC[C@@]21C [ethisterone]")
5.13
>>> recordedresult("C#C[C@]1(OC(C)=O)CC[C@H]2[C@@H]3CCC4=CC(=NO)CC[C@@H]4[C@H]3CC[C@@]21CC (mixture of isomers) [norgestimate]")
8.05
>>> recordedresult("C[C@]12CC[C@@H]3c4ccc(OS(=O)(=O)O)cc4CC[C@H]3[C@@H]1CCC2=O [Estropipate]")
0.28
>>> recordedresult("C[C@]12CCC(=O)C=C1CC[C@@H]1[C@@H]2C(=O)C[C@]2(C)C(=O)CC[C@@H]12 [adrenosterone]")
30.8
>>> recordedresult("C[C@]12C[C@H](O)[C@H]3[C@@H](CCC4=CC(=O)CC[C@@]43C)[C@@H]1CC[C@@H]2C(=O)CO [corticosterone]")
6.1
>>> recordedresult("C=C1C[C@@H]2[C@H](CC[C@]3(C)C(=O)CC[C@@H]23)[C@@]2(C)C=CC(=O)C=C12 [exemestane]")
0.309
>>> recordedresult("CC(=O)[C@H]1CC[C@H]2[C@@H]3C[C@H](C)C4=CC(=O)CC[C@]4(C)[C@H]3[C@@H](O)C[C@]12C [Medrysone]")
0.471
>>> recordedresult("C#C[C@]1(O)CC[C@H]2[C@@H]3CCc4cc(O)ccc4[C@H]3CC[C@@]21C [ethinylestradiol]")
3.36
>>> recordedresult("C[C@]12CC[C@@H]3c4ccc(O)cc4CC[C@H]3[C@@H]1CC[C@@H]2O [estradiol-17 beta]")
1.45
>>> recordedresult("C#C[C@]1(O)CC[C@H]2[C@@H]3CCC4=CCCC[C@@H]4[C@H]3CC[C@@]21C [lynestrenol]")
9.36
>>> recordedresult("C#C[C@]1(OC(C)=O)CC[C@H]2[C@@H]3CCC4=C[C@@H](OC(C)=O)CC[C@@H]4[C@H]3CC[C@@]21C [ethynodiol diacetate]")
13.9
